read-out: ABC Transporter (ABCB11), ABCB11 (gene 8647); assay: LTEA_HepaRG_ABCB11: Life Technologies and Expression Analysis (LTEA) Assay for ABC Transporter (ABCB11) using HepaRG (AID 2283463); conditions: mRNA level, 48 h; actives raise or lower the signal
Calls of active or inactive are those of the source. How the source made its calls: active means hit-call score of the fitted dose curve at least 0.9, where 1 is the maximum; inactive means score below 0.9.
A correct response names exactly one class from T (active), F (inactive)

>>> print(df.to_string())
                                   molecule  assigned_category
0  CCN(CC)CCOc1ccc(C(=C(Cl)c2ccccc2)c2ccccc2)cc1                  T
1                                   CC(N)=O                  F
2                    Cc1ccc(C(C)(C)C)c(O)c1                  F

stdin: Would you mind telling me which call this test gave CCCCCCC(C=O)=Cc1ccccc1 ?
stdout: F

stdin: Would you mind telling me which call this test gave CCCCCCCC(=O)OC ?
stdout: F

stdin: Would you mind telling me which call this test gave O=C(N[C@@H](c1ccccc1)[C@@H]1CCCCN1)c1cccc(C(F)(F)F)c1Cl ?
stdout: T

stdin: Would you mind telling me which call this test gave CSc1ccc(Oc2ccc(S(N)(=O)=O)cc2CN(C)C)cc1C ?
stdout: T

stdin: Would you mind telling me which call this test gave CN(C)CCCN1c2ccccc2Sc2ccc(Cl)cc21 ?
stdout: T

stdin: Would you mind telling me which call this test gave CC(=O)OC1CC(C)OC(C)O1 (centres undefined) ?
stdout: F

stdin: Would you mind telling me which call this test gave CC(C)NCC(O)c1ccc(O)c(O)c1 (centres undefined) ?
stdout: T

stdin: Would you mind telling me which call this test gave O=NO ?
stdout: F

stdin: Would you mind telling me which call this test gave NC(=Nc1ccccc1)Nc1ccccc1 ?
stdout: F

stdin: Would you mind telling me which call this test gave O=C1OC(c2ccc(O)cc2)(c2ccc(O)cc2)c2ccccc21 ?
stdout: T

stdin: Would you mind telling me which call this test gave CC1=C(C)S(=O)(=O)CCS1(=O)=O ?
stdout: T

* * *

read-out: Forkhead box O1 (FOXO1), FOXO1 (gene 2308); assay: LTEA_HepaRG_FOXO1: Life Technologies and Expression Analysis (LTEA) Assay for Forkhead box O1 (FOXO1) using HepaRG (AID 2283456); conditions: mRNA level, 48 h; actives raise or lower the signal
The source made the active and inactive calls. Rule for the calls: active = hit-call score of the fitted dose curve at least 0.9, where 1 is the maximum; inactive = score below 0.9.
A correct response names exactly one class from true (1) = active, false (0) = inactive

Solved cases (5 shown):
>>> print(df.to_string())
                                   compound  assigned_category
0  OCC(CO)n1cnc(-c2ccc(F)cc2)c1-c1ccnc(Oc2ccccc2)n1          false (0)
1  CCCC[C@H]1CN(CC2CCOCC2)C(=O)OC12CCN(C1(C)CCN(C(=O)c3c(C)ncnc3C)CC1)CC2          false (0)
2                                NCCOCCOCCN          false (0)
3                         CCCCCCCCCCCCCCCCO          false (0)
4            CCCCC(CC)CO (stereo not drawn)          false (0)

stdin: Would you mind telling me which call this test gave O=C(O)c1cccnc1 ?
stdout: false (0)

stdin: Would you mind telling me which call this test gave CCCC(=O)O ?
stdout: false (0)

stdin: Would you mind telling me which call this test gave O=C1CCCCC1 ?
stdout: false (0)

stdin: Would you mind telling me which call this test gave O=C(O)CC(O)(CC(=O)O)C(=O)O ?
stdout: false (0)

stdin: Would you mind telling me which call this test gave Cc1ccc(C(C)(C)C)c(O)c1 ?
stdout: false (0)

stdin: Would you mind telling me which call this test gave CC(=O)O ?
stdout: false (0)

stdin: Would you mind telling me which call this test gave CC(COCC(C)OC(=O)c1ccccc1)OC(=O)c1ccccc1 (stereo not drawn) ?
stdout: false (0)

stdin: Would you mind telling me which call this test gave CC(=O)CC(c1ccccc1)c1c(O)c2ccccc2oc1=O (stereo not drawn) ?
stdout: false (0)

stdin: Would you mind telling me which call this test gave COC(=O)CCC(=O)OC ?
stdout: false (0)

stdin: Would you mind telling me which call this test gave CC(C)NCC(O)c1ccc(O)c(O)c1 (stereo not drawn) ?
stdout: false (0)

stdin: Would you mind telling me which call this test gave CC(C)COC(=O)CCCCC(=O)OCC(C)C ?
stdout: false (0)

stdin: Would you mind telling me which call this test gave COc1ccc(OC(F)(F)F)cc1CN[C@H]1CCCN[C@H]1c1ccccc1 ?
stdout: true (1)

stdin: Would you mind telling me which call this test gave CN(C)CCCN(C)CCCN(C)C ?
stdout: false (0)

* * *

read-out: Keratin 19 (KRT19), KRT19 (gene 3880); test: LTEA_HepaRG_KRT19: Life Technologies and Expression Analysis (LTEA) Assay for Keratin 19 (KRT19) using HepaRG (AID 2283512); conditions: mRNA level, 48 h; actives raise or lower the signal
The source made the active and inactive calls. Rule for the calls: active = hit-call score of the fitted dose curve at least 0.9, where 1 is the maximum; inactive = score below 0.9.
A correct response names exactly one class from yes = active, no = inactive

>>> df
                                   molecule  assigned_category
0  CN(C)C(=O)NC1(c2ccccc2)CCN(CC[C@@]2(c3ccc(F)c(F)c3)CN(C(=O)c3ccccc3)CCO2)CC1                yes
1  O=C(N[C@@H](c1ccccc1)[C@@H]1CCCCN1)c1cccc(C(F)(F)F)c1Cl                yes
2  CSc1ccc(Oc2ccc(S(N)(=O)=O)cc2CN(C)C)cc1C                yes
3                            O=Cc1ccccc1C=O                 no
4  O=C1OC(c2ccc(O)cc2)(c2ccc(O)cc2)c2ccccc21                 no
5                          C/C=C/C=C/C(=O)O                 no

Now consider the entry below.
stdin: Would you mind telling me which call this test gave CCCCC(CC)COP(=O)(OCC(CC)CCCC)OCC(CC)CCCC (configuration not stated) ?
stdout: no

* * *

read-out: Cyclin D2 (CCND2), CCND2 (gene 894); experiment: LTEA_HepaRG_CCND2: Life Technologies and Expression Analysis (LTEA) Assay for Cyclin D2 (CCND2) using HepaRG (AID 2283449); conditions: mRNA level, 48 h; actives raise or lower the signal;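 further: CCND2 transcript measured by TaqMan qRT-PCR and normalised to three housekeeping genes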
Activity calls are given as the source filed them. How the source made its calls: active means hit-call score of the fitted dose curve at least 0.9, where 1 is the maximum; inactive means score below 0.9.
A correct response names exactly one class from active, inactive

                                   compound  assigned_category
0                                  OCC(O)CO           inactive
1             CCc1nc(N)nc(N)c1-c1ccc(Cl)cc1           inactive
2  Cc1cc(SC2=C(O)C[C@@](CCc3ccc(N)cc3)(C(C)C)OC2=O)c(C(C)(C)C)cc1CO           inactive
3                         COC(=O)CCCC(=O)OC           inactive

stdin: Would you mind telling me which call this test gave N[C@@H](Cc1c[nH]c2ccccc12)C(=O)O ?
stdout: inactive

stdin: Would you mind telling me which call this test gave C=CCc1ccc(OC)c(OC)c1 ?
stdout: inactive

* * *

read-out: Monokine induced gamma interferon (MIG), CXCL9 (gene 4283); experiment: BSK_CASM3C_MIG: BioMAP Diversity Plus: CASM3C Assay for Monokine induced gamma interferon (MIG) Biomarker Activity (AID 2283048); details: primary human coronary artery smooth muscle cells; actives raise or lower the signal;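 further: MIG protein level measured by ELISA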
Activity calls are given as the source filed them. How the source made its calls: active means hit-call score of the fitted dose curve at least 0.9, where 1 is the maximum; inactive means score below 0.9.
Result type: outcome

>>> print(df.to_string())
                                   compound  reported_value
0  CC(=O)[C@@]1(O)CC[C@H]2[C@@H]3CCC4=CC(=O)CC[C@]4(C)[C@H]3CC[C@@]21C        inactive
1  O=C1OC(c2ccc(O)cc2)(c2ccc(O)cc2)c2ccccc21        inactive
2              CC(C)COC(=O)CCCCC(=O)OCC(C)C        inactive
3              O=C1c2c(O)cccc2Cc2cccc(O)c21        inactive
4  CCC(C)N(C)C(=O)c1cc2ccccc2c(-c2ccccc2Cl)n1 (stereo not drawn)        inactive
5                CC(=O)OCC(COC(C)=O)OC(C)=O        inactive
6                  O=C(O)CN(CC(=O)O)CC(=O)O        inactive
7  CC(=O)OC1CC(C)OC(C)O1 (stereo not drawn)        inactive
8  CC(COCC(C)OC(=O)c1ccccc1)OC(=O)c1ccccc1 (stereo not drawn)        inactive
9  Cc1cn([C@H]2C=C[C@@H](CO)O2)c(=O)[nH]c1=O        inactive

stdin: I have this compound here, C=CCCCCCCCCCCCC , and I need its recorded outcome.
stdout: inactive

stdin: I have this compound here, CCCCOC(=O)CCCCC(=O)OCCCC , and I need its recorded outcome.
stdout: inactive

stdin: I have this compound here, CN(C)CCCN(C)CCCN(C)C , and I need its recorded outcome.
stdout: inactive

stdin: I have this compound here, CC(C)c1cccc(C(C)C)c1NC(=O)NS(=O)(=O)c1cc(C(C)(C)O)co1 , and I need its recorded outcome.
stdout: inactive

stdin: I have this compound here, COc1ccc(C(=O)Nc2nc3ccccc3c(NCc3ccccc3)c2C#N)cc1 , and I need its recorded outcome.
stdout: inactive

stdin: I have this compound here, CN(C)C(=O)NC1(c2ccccc2)CCN(CCC[C@]2(c3ccc(Cl)c(Cl)c3)CCCN(C(=O)c3ccccc3)C2)CC1 , and I need its recorded outcome.
stdout: inactive

stdin: I have this compound here, CC(C)OC(=O)C(C)(C)Oc1ccc(C(=O)c2ccc(Cl)cc2)cc1 , and I need its recorded outcome.
stdout: inactive

stdin: I have this compound here, CC(C)(O)c1ccc(CNC(=O)c2cccnc2Oc2ccc(F)cc2)cc1 , and I need its recorded outcome.
stdout: inactive

Values were extracted from PubChem BioAssay (EPA / NIEHS).
